# PROTOCOL_TEXT: solvent given as SMILES
# EXPERIMENTAL_PARAMETERS: in [2H]O[2H]
Each entry below lists one item and its recorded solvation free energy, 298 K value.
MEASUREMENT_NAME: solvation free energy, 298 K (kJ/mol)

[[record]]
smiles_record = "CCCOCCC"
measurement_name = "solvation free energy, 298 K"
result = -5.73

[[record]]
smiles_record = "CCC=O"
measurement_name = "solvation free energy, 298 K"
result = -13.8

[[record]]
smiles_record = "CCC(=O)CC"
measurement_name = "solvation free energy, 298 K"
result = -13.7

[[record]]
smiles_record = "ClCCl"
measurement_name = "solvation free energy, 298 K"
result = -6.28

[[record]]
smiles_record = "CCCCCO"
measurement_name = "solvation free energy, 298 K"
result = -19.3

[[record]]
smiles_record = "CCCC=O"
measurement_name = "solvation free energy, 298 K"
result = -13

[[record]]
smiles_record = "CCCC#N"
measurement_name = "solvation free energy, 298 K"
result = -15

[[record]]
smiles_record = "CCCCOC(C)=O"
measurement_name = "solvation free energy, 298 K"
result = -11.5

[[record]]
smiles_record = "CC[N+](=O)[O-]"
measurement_name = "solvation free energy, 298 K"
result = -15.7

[[record]]
smiles_record = "CCCCCC(C)=O"
measurement_name = "solvation free energy, 298 K"
result = -12.8

[[record]]
smiles_record = "CCCCCC#N"
measurement_name = "solvation free energy, 298 K"
result = -13.6

[[record]]
smiles_record = "CCC[N+](=O)[O-]"
measurement_name = "solvation free energy, 298 K"
result = -14.4

[[record]]
smiles_record = "Cc1ccccc1"
measurement_name = "solvation free energy, 298 K"
result = -4.14

[[record]]
smiles_record = "CC(C)CO"
measurement_name = "solvation free energy, 298 K"
result = -19.2

[[record]]
smiles_record = "CC(C)C#N"
measurement_name = "solvation free energy, 298 K"
result = -13.8

[[record]]
smiles_record = "CCCC(=O)OCC"
measurement_name = "solvation free energy, 298 K"
result = -10.8

[[record]]
smiles_record = "COC=O"
measurement_name = "solvation free energy, 298 K"
result = -11.8

[[record]]
smiles_record = "ClCCCl"
measurement_name = "solvation free energy, 298 K"
result = -7.91

[[record]]
smiles_record = "CC(C)OC(C)C"
measurement_name = "solvation free energy, 298 K"
result = -6.53

[[record]]
smiles_record = "ClC(Cl)(Cl)Cl"
measurement_name = "solvation free energy, 298 K"
result = -2.59

[[record]]
smiles_record = "c1ccccc1"
measurement_name = "solvation free energy, 298 K"
result = -4.23

[[record]]
smiles_record = "COC(C)=O"
measurement_name = "solvation free energy, 298 K"
result = -13.3

[[record]]
smiles_record = "COc1ccccc1"
measurement_name = "solvation free energy, 298 K"
result = -11

[[record]]
smiles_record = "CCCO"
measurement_name = "solvation free energy, 298 K"
result = -20.7


----------
# PROTOCOL_TEXT: solvent given as SMILES
# EXPERIMENTAL_PARAMETERS: in c1ccc(C2CCCCC2)cc1
MEASUREMENT_NAME: solvation free energy, 298 K (kcal/mol)

[[record]]
smiles_record = "C1CCCCC1"
measurement_name = "solvation free energy, 298 K"
result = -4.03

[[record]]
smiles_record = "C1=CCCCC1"
measurement_name = "solvation free energy, 298 K"
result = -4.19

[[record]]
smiles_record = "C=CCCCCC"
measurement_name = "solvation free energy, 298 K"
result = -4.31

[[record]]
smiles_record = "c1ccccc1"
measurement_name = "solvation free energy, 298 K"
result = -4.19


----------
# PROTOCOL_TEXT: solvent given as SMILES
# EXPERIMENTAL_PARAMETERS: in CNC(C)=O
MEASUREMENT_NAME: solvation free energy, 298 K (kcal/mol)

[[record]]
smiles_record = "CC(C)OC(C)(C)C"
result = -3.62

[[record]]
smiles_record = "ClC(Cl)(Cl)Cl"
result = -3.9

[[record]]
smiles_record = "COC(C)=O"
result = -3.62

[[record]]
smiles_record = "ClCCl"
result = -3.74

[[record]]
smiles_record = "c1ccoc1"
result = -3.23

[[record]]
smiles_record = "ClCCCl"
result = -4.45

[[record]]
smiles_record = "CC(C)CO"
result = -5.91

[[record]]
smiles_record = "Clc1ccccc1"
result = -5.17

[[record]]
smiles_record = "COC=O"
result = -3.15

[[record]]
smiles_record = "CC(C)OC(C)C"
result = -3.25

[[record]]
smiles_record = "C=CCCC"
result = -2.22

[[record]]
smiles_record = "Cc1ccccc1"
result = -4.57

[[record]]
smiles_record = "CCC(C)C"
result = -2.03

[[record]]
smiles_record = "CC=O"
result = -2.85

[[record]]
smiles_record = "C1=CCCCC1"
result = -3.52

[[record]]
smiles_record = "c1ccccc1"
result = -3.87

[[record]]
smiles_record = "CCCCOC(C)=O"
result = -5.14

[[record]]
smiles_record = "CC(C)C=O"
result = -3.68

[[record]]
smiles_record = "C1CCCCC1"
result = -3.26


----------
Each entry below lists one item and its recorded solvation free energy, 298 K value.
# PROTOCOL_TEXT: solvent given as SMILES
# EXPERIMENTAL_PARAMETERS: in CC(C)O
MEASUREMENT_NAME: solvation free energy, 298 K (kcal/mol)

[[record]]
compound = "c1ccsc1"
measurement_name = "solvation free energy, 298 K"
result = -3.75

[[record]]
compound = "C1CCCCC1"
measurement_name = "solvation free energy, 298 K"
result = -3.52

[[record]]
compound = "Clc1ccccc1"
measurement_name = "solvation free energy, 298 K"
result = -4.92

[[record]]
compound = "CN(C)C(=O)Nc1ccc(Cl)cc1"
measurement_name = "solvation free energy, 298 K"
result = -13.1

[[record]]
compound = "COC"
measurement_name = "solvation free energy, 298 K"
result = -2.13

[[record]]
compound = "O=C(O)c1cc([N+](=O)[O-])cc([N+](=O)[O-])c1"
measurement_name = "solvation free energy, 298 K"
result = -14.1

[[record]]
compound = "O=C(O)c1cccc(Cl)c1"
measurement_name = "solvation free energy, 298 K"
result = -10.7

[[record]]
compound = "c1ccc2c(c1)-c1cccc3cccc-2c13"
measurement_name = "solvation free energy, 298 K"
result = -11.1

[[record]]
compound = "O=c1c2ccccc2sc2ccccc12"
measurement_name = "solvation free energy, 298 K"
result = -11.9

[[record]]
compound = "CCCCCCCCCCCCCCCCCCCCCCCC"
measurement_name = "solvation free energy, 298 K"
result = -13.6

[[record]]
compound = "C=CCC"
measurement_name = "solvation free energy, 298 K"
result = -1.98

[[record]]
compound = "O=O"
measurement_name = "solvation free energy, 298 K"
result = 0.89

[[record]]
compound = "O=C1c2ccccc2C(=O)c2c(Cl)cccc21"
measurement_name = "solvation free energy, 298 K"
result = -12.6

[[record]]
compound = "CC(C)CC(C)(C)C"
measurement_name = "solvation free energy, 298 K"
result = -3.68

[[record]]
compound = "CCCC(C)C"
measurement_name = "solvation free energy, 298 K"
result = -3.02

[[record]]
compound = "CC(C)CC(C)C"
measurement_name = "solvation free energy, 298 K"
result = -3.45

[[record]]
compound = "COc1cc(C2c3cc4c(cc3C(O)C3COC(=O)C23)OCO4)cc(OC)c1OC (stereo not given)"
measurement_name = "solvation free energy, 298 K"
result = -25.1

[[record]]
compound = "CCCO"
measurement_name = "solvation free energy, 298 K"
result = -5.53

[[record]]
compound = "CC(C)(C)c1ccccc1"
measurement_name = "solvation free energy, 298 K"
result = -5.63

[[record]]
compound = "COC(C)=O"
measurement_name = "solvation free energy, 298 K"
result = -3.36

[[record]]
compound = "CC(=O)Nc1ccc(O)cc1"
measurement_name = "solvation free energy, 298 K"
result = -16

[[record]]
compound = "c1ccc2c(c1)Nc1ccccc1S2"
measurement_name = "solvation free energy, 298 K"
result = -12.8

[[record]]
compound = "c1ccc2c(c1)Cc1ccccc1O2"
measurement_name = "solvation free energy, 298 K"
result = -9.22

[[record]]
compound = "O=C(C(=O)c1ccccc1)c1ccccc1"
measurement_name = "solvation free energy, 298 K"
result = -10.8

[[record]]
compound = "CCCC#N"
measurement_name = "solvation free energy, 298 K"
result = -4.6

[[record]]
compound = "ClCc1ccccc1"
measurement_name = "solvation free energy, 298 K"
result = -5.99

[[record]]
compound = "O=c1cc(-c2ccc(O)c(O)c2)oc2cc(O)cc(O)c12"
measurement_name = "solvation free energy, 298 K"
result = -25.4

[[record]]
compound = "CCCCc1ccccc1"
measurement_name = "solvation free energy, 298 K"
result = -5.98

[[record]]
compound = "Cc1ccccc1"
measurement_name = "solvation free energy, 298 K"
result = -4.38

[[record]]
compound = "CC(C)Cc1ccc(C(C)C(=O)O)cc1 (stereo not given)"
measurement_name = "solvation free energy, 298 K"
result = -13.4

[[record]]
compound = "O=C(O)c1cccc(C(=O)O)c1"
measurement_name = "solvation free energy, 298 K"
result = -13.8

[[record]]
compound = "c1cc2c3c(cccc3c1)CC2"
measurement_name = "solvation free energy, 298 K"
result = -8.38

[[record]]
compound = "CCCOCCC"
measurement_name = "solvation free energy, 298 K"
result = -4.02

[[record]]
compound = "O=C(O)CCCCC(=O)O"
measurement_name = "solvation free energy, 298 K"
result = -13.5

[[record]]
compound = "O=C(Oc1ccccc1)c1ccccc1O"
measurement_name = "solvation free energy, 298 K"
result = -12.2

[[record]]
compound = "CN1C(=O)C(O)N=C(c2ccccc2)c2cc(Cl)ccc21 (stereo not given)"
measurement_name = "solvation free energy, 298 K"
result = -18.1

[[record]]
compound = "C1CCCC1"
measurement_name = "solvation free energy, 298 K"
result = -2.89

[[record]]
compound = "c1ccccc1"
measurement_name = "solvation free energy, 298 K"
result = -3.71

[[record]]
compound = "O=C(O)c1ccc([N+](=O)[O-])cc1"
measurement_name = "solvation free energy, 298 K"
result = -12.2

[[record]]
compound = "CCCCCO"
measurement_name = "solvation free energy, 298 K"
result = -6.83

[[record]]
compound = "CC(=O)Oc1ccccc1C(=O)O"
measurement_name = "solvation free energy, 298 K"
result = -13.6

[[record]]
compound = "C1CCCCCC1"
measurement_name = "solvation free energy, 298 K"
result = -4.24

[[record]]
compound = "C=C"
measurement_name = "solvation free energy, 298 K"
result = -0.45

[[record]]
compound = "O=C=O"
measurement_name = "solvation free energy, 298 K"
result = -0.42

[[record]]
compound = "CCCCCCCCCCCCCCCCCCO"
measurement_name = "solvation free energy, 298 K"
result = -14.9

[[record]]
compound = "ClCCl"
measurement_name = "solvation free energy, 298 K"
result = -3.26

[[record]]
compound = "O=[N+]([O-])c1cc(Cl)ccc1Cl"
measurement_name = "solvation free energy, 298 K"
result = -8.07

[[record]]
compound = "Cc1ccccc1C(=O)O"
measurement_name = "solvation free energy, 298 K"
result = -9.06

[[record]]
compound = "COc1cc(Cc2cnc(N)nc2N)cc(OC)c1OC"
measurement_name = "solvation free energy, 298 K"
result = -19.2

[[record]]
compound = "[N-]=[N+]=O"
measurement_name = "solvation free energy, 298 K"
result = -0.48

